system: T1, human MICA002 on cells (human)
T1 chain: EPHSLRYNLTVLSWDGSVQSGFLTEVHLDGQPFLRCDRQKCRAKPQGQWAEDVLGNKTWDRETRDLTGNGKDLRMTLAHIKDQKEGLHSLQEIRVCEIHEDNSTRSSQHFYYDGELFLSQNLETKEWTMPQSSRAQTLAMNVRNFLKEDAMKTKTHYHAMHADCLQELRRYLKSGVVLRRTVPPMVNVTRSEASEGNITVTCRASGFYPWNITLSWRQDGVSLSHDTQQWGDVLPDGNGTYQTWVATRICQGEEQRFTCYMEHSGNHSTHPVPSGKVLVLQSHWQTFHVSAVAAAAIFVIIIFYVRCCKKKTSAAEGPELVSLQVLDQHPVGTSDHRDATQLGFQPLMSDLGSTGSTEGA
assay.info: flow cytometry, CHO-MICA002 cells
// reported EC50 per item
endpoint.name: EC50 (µg/mL)

binder	measure.unit	reported
6E1.1.12 (antibody, human IgG1, kappa, V domains shown) VH: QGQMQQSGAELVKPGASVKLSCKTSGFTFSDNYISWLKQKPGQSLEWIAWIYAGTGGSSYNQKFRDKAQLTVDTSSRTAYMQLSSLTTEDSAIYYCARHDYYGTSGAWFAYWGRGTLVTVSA VL: DVLMTQTPLSLPVSLGDQASISCRSSQHIVHSNENTYLEWYLQKPGQSPKLLIYKVSNRFSGVPDRFSGSGSGTDFTLKISRVEAEDLGVYYCFQGSHVPWTFGGGTKVEIKR	µg/mL	0.882
3F9 (antibody, human IgG1, kappa, V domains shown, also called benchmark 3F9) VH: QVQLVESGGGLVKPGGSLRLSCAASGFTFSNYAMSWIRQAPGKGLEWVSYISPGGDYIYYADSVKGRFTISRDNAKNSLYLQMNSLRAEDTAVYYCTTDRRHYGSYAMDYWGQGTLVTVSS VL: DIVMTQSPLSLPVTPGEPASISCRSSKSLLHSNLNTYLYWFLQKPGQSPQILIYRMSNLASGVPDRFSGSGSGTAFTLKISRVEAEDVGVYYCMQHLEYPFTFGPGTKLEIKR	µg/mL	0.352
#34 (antibody, human IgG1, V domains shown, also called PL111H04; Hit ID 34) VH: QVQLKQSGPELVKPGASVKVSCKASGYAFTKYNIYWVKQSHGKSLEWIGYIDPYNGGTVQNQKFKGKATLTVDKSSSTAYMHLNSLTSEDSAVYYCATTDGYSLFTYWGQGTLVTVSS VL: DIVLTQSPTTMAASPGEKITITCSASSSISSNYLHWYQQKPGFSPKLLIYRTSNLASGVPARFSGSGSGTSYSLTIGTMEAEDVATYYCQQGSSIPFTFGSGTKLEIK	µg/mL	0.144
13A9 (antibody, human IgG1, kappa, V domains shown) VH: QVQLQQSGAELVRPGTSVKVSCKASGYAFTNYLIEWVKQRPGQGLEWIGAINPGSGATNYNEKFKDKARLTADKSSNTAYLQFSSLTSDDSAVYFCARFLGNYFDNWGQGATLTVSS VL: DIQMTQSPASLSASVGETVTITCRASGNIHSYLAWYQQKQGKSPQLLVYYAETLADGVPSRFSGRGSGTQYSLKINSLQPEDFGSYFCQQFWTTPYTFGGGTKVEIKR	µg/mL	3.56
